These entries and their values trace back to ChEMBL document CHEMBL1144497.

biological target: Bifunctional epoxide hydrolase 2 (Homo sapiens); test: Inhibition of human soluble epoxide hydrolase by fluorescent based assay
Sequence (P34913 whole entry): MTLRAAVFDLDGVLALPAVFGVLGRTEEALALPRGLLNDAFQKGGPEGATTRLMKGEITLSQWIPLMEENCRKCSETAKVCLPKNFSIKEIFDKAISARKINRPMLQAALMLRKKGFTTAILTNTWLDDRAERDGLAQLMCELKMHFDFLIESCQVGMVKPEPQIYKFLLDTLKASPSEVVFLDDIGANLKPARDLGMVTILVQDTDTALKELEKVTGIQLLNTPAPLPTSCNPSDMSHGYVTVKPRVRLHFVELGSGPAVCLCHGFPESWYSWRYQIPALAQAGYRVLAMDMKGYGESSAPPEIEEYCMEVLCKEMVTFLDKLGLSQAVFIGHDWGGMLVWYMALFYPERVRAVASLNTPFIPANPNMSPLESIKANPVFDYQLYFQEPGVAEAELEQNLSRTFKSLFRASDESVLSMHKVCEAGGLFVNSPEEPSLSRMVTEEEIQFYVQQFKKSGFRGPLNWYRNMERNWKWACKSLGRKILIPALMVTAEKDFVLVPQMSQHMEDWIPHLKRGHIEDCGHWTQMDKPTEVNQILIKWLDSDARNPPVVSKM
MEASURED_ATTRIBUTE: pIC50
One number for each entry, as −log10 of the molar value.

# count of solved cases: 2
Lab note: measured pIC50 of COC(=O)CCCCCCCCCCCNC(=O)NC12CC3CC(CC(C3)C1)C2 was 8.64

Documented pIC50 of C#CCOC(=O)CCCCCCCCCCCNC(=O)NC12CC3CC(CC(C3)C1)C2 : 8.74

Attention now shifts to the item below.
The compound identified as O=C(NCCCCCCCCCCCC(=O)OC12CC3CC(CC(C3)C1)C2)NC12CC3CC(CC(C3)C1)C2 registered its pIC50 at 8.82
